- EXPERIMENTAL_SYSTEM: CvkR (Alr3614) (Anabaena sp. PCC 7120, UniProt A0ACD6B984 19-168)
- Sequence (A0ACD6B984 entry or part of it): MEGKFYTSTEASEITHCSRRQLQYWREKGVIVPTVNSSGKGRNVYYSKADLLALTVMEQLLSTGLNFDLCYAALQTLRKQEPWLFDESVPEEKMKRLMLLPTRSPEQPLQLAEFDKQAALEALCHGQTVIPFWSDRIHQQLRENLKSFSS
- EXPERIMENT_NOTES: EMSA; EMSA: 10 mM Tris-HCl pH 8.0, 25 mM MgCl2, 50 mM NaCl, 1 mM DTT, 1 mM EDTA, 50 ug/mL poly(dI-dC), 0.01% NP-40, 10% glycerol, 2 nM probe, 25 C 30 min; footprinting: 50 mM Tris-HCl pH 8.0, 100 mM KCl, 2.5 mM MgCl2, 0.2 mM DTT, 10% glycerol, 2 ug salmon sperm DNA, RT
- CONDITION_NOTES: protein: recombinant; tags: 6xHis-SUMO removed by Ulp1 (BamHI site; possible vector residues at N-term); chain copies: 2; label: 5'-biotin; blunt

| BINDER | binding result |
| --- | --- |
| PpsbAI (dsDNA) DNA 1: GGAATAATTAACATTAAGAATTATTAATTCATGGGTTTTTAGTCTAGTAAATTTGCGTGAATTCATGTAAATTTTATGAG DNA 2: CTCATAAAATTTACATGAATTCACGCAAATTTACTAGACTAAAAACCCATGAATTAATAATTCTTAATGTTAATTATTCC | no binding |
| P45 (dsDNA) DNA 1: TAAGAAACATCCTATAGAAGCATCTTCTAAAACACATTAGTGCTTT DNA 2: AAAGCACTAATGTGTTTTAGAAGATGCTTCTATAGGATGTTTCTTA | no binding |
